- Tested on: A-427 human pulmonary cancer cells
- run description: MTT test, proliferation of A-427
- applied conditions: Homo sapiens, A-427, 72 h, read-out: level of proliferation
measured metric: activity at 100 µM (%)
Please respond with the number in % and leave the unit unwritten.

What does the record list as activity at 100 µM for C/C(=C/c1ccc2c(c1)C(C)(C)CCC2(C)C)c1ccc(-c2nnn[nH]2)cc1 ? 3.1

Given the compound C/C(=C/c1ccc2c(c1)C(C)(C)CCC2(C)C)c1ccc(C(=O)O)cn1 , what is its reported activity at 100 µM? 24.1

Report activity at 100 µM for C/C(=C\c1ccc(C(=O)O)cc1)c1ccc2c(c1)C(C)(C)CCC2(C)C [TTNPB, reference compound] please. 3.6

Look at this compound and give its reported activity at 100 µM. C/C(=C\c1ccc2c(c1)C(C)(C)CCS2(=O)=O)c1ccc(C(=O)O)cc1 70.7

Fill blank: measured activity at 100 µM of the compound CCCCCCCOc1cc2c(cc1/C(C)=C/c1ccc(C(=O)O)cc1)C(C)(C)CCS2(=O)=O is ____. 0

Returns the measured activity at 100 µM for the input compound. Input: CC1=C(/C=C/C(C)=C/C=C/C(C)=C\C(=O)O)C(C)(C)CCC1 [CB81808, 13-cis retinoic acid, reference compound] 6.5

Look at this compound and give its reported activity at 100 µM. C/C(=C\c1ccc2c(c1)C(C)(C)CCS2)c1ccc(C(=O)O)cc1 4.4

Please look up its activity at 100 µM: COc1cc2c(cc1/C(C)=C/c1ccc(C(=O)O)cc1)C(C)(C)CCS2(=O)=O 163

Give the measured activity at 100 µM of CC1(C)CCC(C)(C)c2cc(/C=C(\c3ccc(C(=O)O)cc3)C(F)(F)F)ccc21 . 1.6

# lookup: activity at 100 µM of CC1(C)CCC(C)(C)c2cc(/C=C(\c3ccc(-c4nnn[nH]4)cc3)C(F)(F)F)ccc21 0.2

Name the reported activity at 100 µM value associated with the compound C/C(=C\c1ccc2c(c1)C(C)(C)CCS2(=O)=O)c1ccc(-c2nnn[nH]2)cc1 24.3

Query: activity at 100 µM; subject: Cc1cc2c(cc1/C=C(\c1ccc(C(=O)O)cc1)C(F)(F)F)C(C)(C)CCC2(C)C 0

activity at 100 µM lookup needed for CC1=C(/C=C/C(C)=C/C=C/C(C)=C/C(=O)O)C(C)(C)CCC1 [CB16178, all-trans retinoic acid, reference compound] , thanks. 1.5

Please look up its activity at 100 µM: C/C(=C\c1ccc2c(c1)C(C)(C)CCC2(C)C)c1ccc(C(=O)Nc2nnn[nH]2)cc1 0.1

Quick check: activity at 100 µM of C/C(=C\c1cc2c(cc1C)C(C)(C)CCC2(C)C)c1ccc(C(=O)O)cc1 ? 1

GET /values?readout=activity at 100 µM&item= C/C(=C/c1ccc2c(c1)C(C)(C)CCS2(=O)=O)c1ccc(-c2nnn[nH]2)cc1 27.1

====

Hi there, I'd appreciate the recorded activity at 1 µM for every entry that follows.
- Tested on: ZR-75-1 human mammary cancer cells
- run description: MTT test, proliferation of ZR-75-1
- Assay type: cell-based
- applied conditions: Homo sapiens; ZR-75-1, 10^-6 M, 72 h, control = 100%; read-out: level of proliferation
Value and unit, in that order.

May I ask what activity at 1 µM has been recorded for C/C(=C\c1ccc2c(c1)C(C)(C)CCC2(C)C)c1ccc(C(=O)Nc2nnn[nH]2)cc1 [CB73364] ? 101%

Return reported activity at 1 µM; argument: C/C(=C/c1cc2c(cc1C)C(C)(C)CCC2(C)C)c1ccc(C(=O)O)cc1 [CB32706] 93.1%

I have this compound here, Cc1cc2c(cc1/C=C(\c1ccc(C(=O)O)cc1)C(F)(F)F)C(C)(C)CCC2(C)C [CB62899] , and I need its recorded activity at 1 µM. 112%

// lookup activity at 1 µM for CCCCCCCOc1cc2c(cc1/C(C)=C/c1ccc(C(=O)O)cc1)C(C)(C)CCS2(=O)=O [CB65757] 118%

Endpoint output: activity at 1 µM of C/C(=C/c1cc2c(cc1C)C(C)(C)CCC2(C)C)c1ccc(-c2nnn[nH]2)cc1 [CB61692] . Value? 89.5%

State the recorded activity at 1 µM for this entry: C/C(=C/c1ccc2c(c1)C(C)(C)CCC2(C)C)c1ccc(C(=O)O)cn1 [CB38416] 98.3%

Would you kindly share the measured activity at 1 µM for CC1(C)CCC(C)(C)c2cc(/C=C(\c3ccc(C(=O)O)cc3)C(F)(F)F)ccc21 [CB36493] ? 108%

Name the reported activity at 1 µM value associated with the compound C/C(=C/c1ccc2c(c1)C(C)(C)CCC2(C)C)c1ccc(C(=O)O)cc1 [CB28628, reference compound] 83.5%

These measurements were taken from patent US6265423A.
